Tested on: Candida
test.protocol: Antifungal activity against Candida sp.
Format: functional

- compound: "CC[C@@H](/C=C/[C@@H](C)[C@H]1CC[C@@H]2[C@]1(C)CC[C@H]1[C@]23C=C[C@]2(C[C@@H](O)CC[C@]12C)OO3)C(C)C"
  MIC: "> 512 µg/mL"
- compound: "Clc1ccc(COC(Cn2ccnc2)c2ccc(Cl)cc2Cl)c(Cl)c1 (stereo unspecified) [MICONAZOLE]"
  MIC: "0.25 µg/mL"
- compound: "CC(C)C/C=C/[C@@H](C)[C@H]1CC[C@@H]2[C@]1(C)CC=C1[C@]23C=C[C@]2(C[C@@H](O)CC[C@]12C)OO3"
  MIC: "> 512 µg/mL"
- compound: "Cn1c([N+](=O)[O-])cnc1C#Cc1ccnc(N)n1"
  MIC: "> 512 µg/mL"
- compound: "CC(C)[C@@H](C)/C=C/[C@@H](C)[C@H]1CC[C@@H]2[C@]1(C)CC=C1[C@]23C=C[C@]2(C[C@@H](O)CC[C@]12C)OO3"
  MIC: "> 512 µg/mL"
- compound: "CC(C)[C@@H](C)/C=C/[C@@H](C)[C@H]1CC[C@@H]2[C@]1(C)CC[C@H]1[C@]23C=C[C@]2(C[C@@H](O)CC[C@]12C)OO3 [ERGOSTEROL PEROXIDE]"
  MIC: "> 512 µg/mL"

----------
System: Pseudomonas aeruginosa
test.protocol: Antibacterial activity against Pseudomonas aeruginosa ATCC 27753
Format: functional
Measured MIC, listed per entry.
measure.name: MIC

- compound: "CC[C@@H](/C=C/[C@@H](C)[C@H]1CC[C@@H]2[C@]1(C)CC[C@H]1[C@]23C=C[C@]2(C[C@@H](O)CC[C@]12C)OO3)C(C)C"
  measure.name: "MIC"
  result.value: "> 512 µg/mL"
- compound: "O=C(O)c1cn(C2CC2)c2cc(N3CCNCC3)c(F)cc2c1=O"
  measure.name: "MIC"
  result.value: "1 µg/mL"
- compound: "CC(C)[C@@H](C)/C=C/[C@@H](C)[C@H]1CC[C@@H]2[C@]1(C)CC=C1[C@]23C=C[C@]2(C[C@@H](O)CC[C@]12C)OO3"
  measure.name: "MIC"
  result.value: "> 512 µg/mL"
- compound: "CC(C)C/C=C/[C@@H](C)[C@H]1CC[C@@H]2[C@]1(C)CC=C1[C@]23C=C[C@]2(C[C@@H](O)CC[C@]12C)OO3"
  measure.name: "MIC"
  result.value: "> 512 µg/mL"
- compound: "CC(C)[C@@H](C)/C=C/[C@@H](C)[C@H]1CC[C@@H]2[C@]1(C)CC[C@H]1[C@]23C=C[C@]2(C[C@@H](O)CC[C@]12C)OO3 [ERGOSTEROL PEROXIDE]"
  measure.name: "MIC"
  result.value: "> 512 µg/mL"
- compound: "Cn1c([N+](=O)[O-])cnc1C#Cc1ccnc(N)n1"
  measure.name: "MIC"
  result.value: "> 512 µg/mL"

----------
Measured MIC, listed per entry.
Test system: Staphylococcus aureus
test.protocol: Antibacterial activity against staphylococcus aureus ATCC 25923
Format: functional
measure.name: MIC

- molecule: "O=C(O)c1cn(C2CC2)c2cc(N3CCNCC3)c(F)cc2c1=O"
  result.value: "0.5 µg/mL"
- molecule: "Cn1c([N+](=O)[O-])cnc1C#Cc1ccnc(N)n1"
  result.value: "> 512 µg/mL"
- molecule: "CC(C)C/C=C/[C@@H](C)[C@H]1CC[C@@H]2[C@]1(C)CC=C1[C@]23C=C[C@]2(C[C@@H](O)CC[C@]12C)OO3"
  result.value: "> 512 µg/mL"
- molecule: "CC[C@@H](/C=C/[C@@H](C)[C@H]1CC[C@@H]2[C@]1(C)CC[C@H]1[C@]23C=C[C@]2(C[C@@H](O)CC[C@]12C)OO3)C(C)C"
  result.value: "> 512 µg/mL"
- molecule: "CC(C)[C@@H](C)/C=C/[C@@H](C)[C@H]1CC[C@@H]2[C@]1(C)CC=C1[C@]23C=C[C@]2(C[C@@H](O)CC[C@]12C)OO3"
  result.value: "> 512 µg/mL"
- molecule: "CC(C)[C@@H](C)/C=C/[C@@H](C)[C@H]1CC[C@@H]2[C@]1(C)CC[C@H]1[C@]23C=C[C@]2(C[C@@H](O)CC[C@]12C)OO3 [ERGOSTEROL PEROXIDE]"
  result.value: "> 512 µg/mL"

Origin of the recorded values: ChEMBL document CHEMBL1140489
